# ASSAYED_SYSTEM: CDK5/p25 (Homo sapiens, UniProt Q00535)
# Sequence (Q00535 whole entry): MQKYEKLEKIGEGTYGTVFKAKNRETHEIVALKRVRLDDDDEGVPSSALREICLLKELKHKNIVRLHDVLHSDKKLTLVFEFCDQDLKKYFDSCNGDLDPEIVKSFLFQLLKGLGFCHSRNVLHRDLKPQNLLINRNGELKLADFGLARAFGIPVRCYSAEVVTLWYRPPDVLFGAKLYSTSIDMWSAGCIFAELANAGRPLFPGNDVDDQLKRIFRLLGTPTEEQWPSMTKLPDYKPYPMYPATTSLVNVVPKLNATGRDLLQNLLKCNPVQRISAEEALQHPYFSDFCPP
# Sequence (Q15078 99-307 partner limits assumed): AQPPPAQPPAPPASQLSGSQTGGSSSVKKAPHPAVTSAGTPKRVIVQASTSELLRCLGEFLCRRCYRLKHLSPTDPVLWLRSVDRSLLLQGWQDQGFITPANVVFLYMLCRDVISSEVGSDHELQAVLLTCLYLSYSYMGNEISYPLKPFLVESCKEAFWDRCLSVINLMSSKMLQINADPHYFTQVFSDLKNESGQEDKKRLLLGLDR
# EXPERIMENTAL_PROTOCOL: CDK5 mobility shift assay (enzymatic activity of CDK5/p25)
# Type: biochemical
# COND: 0.154 nM CDK5/p25, FL peptide 29, 60 min at room temperature; read-out: CDK5 IC50
pIC50: −log10 of the molar value.
READOUT_LABEL: pIC50

CC(c1ccc2cnc(Nc3ccc(-n4ccc(CO)n4)cc3F)cc2n1)C1CCN(C)CC1 (single isomer, unassigned) [Compound 186]	7.00 to 8.00
CN1CCC2(CC1)CC2c1ccc2cnc(Nc3ccc(-n4cccn4)cc3F)cc2n1 (stereo not drawn) [Compound 164]	6.00 to 7.00
CN1CCC(C(C)(O)c2ccc3cnc(Nc4ccc(-c5cccc(C#N)c5)cc4F)cc3n2)CC1 (stereo not drawn) [Compound 337]	6.00 to 7.00

Prompt: Provide the documented pIC50 with CDK5/p25 (Homo sapiens, UniProt Q00535) as the system for CN1CCC(S(=O)(=O)c2ccc3cnc(Nc4cnc5ccc(Cl)nn45)cc3n2)CC1 [Compound 286]
Completion: < 6.00

meta.source: patent US20220389009A1
